- Measured target: T1, human DLL4 extracellular domain (human, UniProt Q9NR61 27-529)
- T1 construct: purified recombinant ECD; biotin-labelled or 6xHis-tagged depending on the assay; also called huDLL4 ECD; hu DLL4 ECD
- T1 sequence (Q9NR61 27-529 limits assumed): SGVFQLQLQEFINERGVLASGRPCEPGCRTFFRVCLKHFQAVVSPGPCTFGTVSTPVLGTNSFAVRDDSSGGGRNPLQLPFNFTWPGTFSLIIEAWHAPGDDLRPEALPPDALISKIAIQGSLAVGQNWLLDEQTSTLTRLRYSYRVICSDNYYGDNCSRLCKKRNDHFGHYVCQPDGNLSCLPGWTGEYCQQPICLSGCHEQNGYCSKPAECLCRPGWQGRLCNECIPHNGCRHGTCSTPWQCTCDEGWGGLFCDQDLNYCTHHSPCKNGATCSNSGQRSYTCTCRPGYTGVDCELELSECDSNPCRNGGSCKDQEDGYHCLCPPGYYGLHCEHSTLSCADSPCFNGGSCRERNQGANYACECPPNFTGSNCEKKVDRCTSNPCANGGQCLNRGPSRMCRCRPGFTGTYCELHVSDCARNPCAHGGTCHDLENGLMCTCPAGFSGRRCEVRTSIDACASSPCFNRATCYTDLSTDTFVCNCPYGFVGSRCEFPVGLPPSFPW
- Procedure summary: capture ELISA, biotin-huDLL4 ECD

| Binder | EC50 (nM) |
| --- | --- |
| h38H12.14 (antibody, V domains shown, humanized IgG; also called VH.2a/VL.1a 38H12) VH: EVQLVESGGGLVQPGGSLRLSCAASGFTFSNYGMYWIRQAPGKGLEWVAFISHGGGITYYRDSVKGRFTISRDNSKSTLYLQMNSLRAEDTAVYHCAALNWELGIDYWGQGTMVTVSS VL: DIQMTQSPSSLSASVGDRVTITCRASEDIYSNLAWYQKKPGKSPKLLIYAANRLQDGVPSRFSGSGSGTDYTLTISSLQPEDFATYFCLQGSKFPLTFGQGTKLEIKR | 0.146 |
| h38H12.9 (antibody, V domains shown, humanized IgG; also called VH.1b/VL.1 38H12) VH: EVQLVESGGGVVQPGRSLRLSCAASGFTFSNYGMYWVRQAPGKGLEWVAFISHGGGITYYRDSVKGRFTISRDNSKNTLYLQMNSLRAEDTAVYYCAALNWELGIDYWGQGTMVTVSS VL: DIQMTQSPSSLSASVGDRVTITCRASEDIYSNLAWYQQKPGKAPKLLIYAANRLQDGVPSRFSGSGSGTDFTLTISSLQPEDFATYYCLQGSKFPLTFGQGTKLEIKR | 0.116 |
